B1: REST corepressor 3, residues 87 to 134; numbered along this chain, Q9P2K3 (parent)
chain: DEWTVEDKVLFEQAFSFHGKSFHRIQQMLPDKTIASLVKYYYSWKKTR

# Variants of: B1
# assay-name: abundance fitness (aPCA) (normalised: wild type 0, dead -1); higher = more abundant; growth selection in yeast, the domain comes from the species named
# condition-set: Homo sapiens
Is abundance fitness at least -0.7? Then Met. If not, Not met.

construct-sequence	group-label
DEWTVEDKVLFVQAFSFHGKSFHRIQQMLPDKTIASLVKYYYSWKKTR	Not met

stdin: Can `DEWTVEDKVLFEQAFSFHGKSFHRIQQMLPDKTIASLVKYYYSWCKTR` be said to have abundance fitness at or above -0.7?
stdout: Met

stdin: Record: `DEWTVEDKVLFEQAFSFTGKSFHRIQQMLPDKTIASLVKYYYSWKKTR`
stdout: Met

stdin: Now try `DEWTVEDKVLFEQAFSFHGKSFHRIQQMLPCKTIASLVKYYYSWKKTR` .
stdout: Met

stdin: What about this variant? `DEWTVEDKVLFEQAFSFHGKSFVRIQQMLPDKTIASLVKYYYSWKKTR`
stdout: Met

stdin: Now the variant `DEWTVEDKVLFEQFFSFHGKSFHRIQQMLPDKTIASLVKYYYSWKKTR`
stdout: Met

stdin: Same read-out for `DEWTVENKVLFEQAFSFHGKSFHRIQQMLPDKTIASLVKYYYSWKKTR` ?
stdout: Not met

stdin: Can you check `DEWTVEDKVLFEQAFSFHGKSFHRIQGMLPDKTIASLVKYYYSWKKTR` next?
stdout: Met

stdin: What would you report for `DEWTVEDKVLFEQAFSFHGKSFHRIQQMLPDKTIASAVKYYYSWKKTR` ?
stdout: Met

stdin: Do the same for `DEWTVEDKVLFEQAFSFHGKSFHRIQQMLPDKTIASLVYYYYSWKKTR` please
stdout: Met

stdin: Please give the result for `DEWTVEDKVLFEQAFSFHGKSFHRIQQMLPDKTIKSLVKYYYSWKKTR` too.
stdout: Met

stdin: Another: `DEWTVEDKVLFEQAFSFHGKSFHRIQQMLPDKTIDSLVKYYYSWKKTR`
stdout: Met

stdin: Also `DEWTVEDKVLFEQAFSFHGKSFHRIQQMLPDKTIASLVKCYYSWKKTR` ?
stdout: Met

stdin: What about `DEWTVEDKVLFEQAFSFHGKSFHRIQQMLPDKTIASLVKYYYDWKKTR` ?
stdout: Met

stdin: Consider next the variant `DEWTVEDKVLFEQAFSFHGKNFHRIQQMLPDKTIASLVKYYYSWKKTR` in the same way.
stdout: Met
